Cited source for all entries: the supplement of paper PMC10567573

B1: ADD1 (parent)
chain: LRHSFQKQQREKTRWLNSGRGDEA

# Variants of: B1
# Experimental details: protein stability index of a GFP-peptide fusion (GPS, HEK-293T) (PSI 1-6); higher = more stable;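 note: lentivirally expressed fusions sorted by FACS into six bins by GFP to DsRed ratio, PSI derived from sequencing read proportions per bin multiplied by bin number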
# Condition set: c terminus: a fixed tail appended
Experimental endpoint: protein stability index
The answer should be a number; do not append a unit.

Previously resolved entries follow.
1) D22T :: 3.29
2) Q9A :: 4.12
3) G21V :: 3.59

Input A24F . Output protein stability index: 2.69

Input L1N . Output protein stability index: 4.11

Input S4D . Output protein stability index: 3.88

Input H3I . Output protein stability index: 3.16

Input W15R . Output protein stability index: 4.62

Input H3V . Output protein stability index: 3.32

Input R2E . Output protein stability index: 4.42

Input R10W . Output protein stability index: 2.66

Input L1G . Output protein stability index: 4.21

Input R20T . Output protein stability index: 3.75
